TARGET OR TEST SYSTEM: Nluc-H1R (Homo sapiens, UniProt P35367)
Sequence (P35367 whole entry): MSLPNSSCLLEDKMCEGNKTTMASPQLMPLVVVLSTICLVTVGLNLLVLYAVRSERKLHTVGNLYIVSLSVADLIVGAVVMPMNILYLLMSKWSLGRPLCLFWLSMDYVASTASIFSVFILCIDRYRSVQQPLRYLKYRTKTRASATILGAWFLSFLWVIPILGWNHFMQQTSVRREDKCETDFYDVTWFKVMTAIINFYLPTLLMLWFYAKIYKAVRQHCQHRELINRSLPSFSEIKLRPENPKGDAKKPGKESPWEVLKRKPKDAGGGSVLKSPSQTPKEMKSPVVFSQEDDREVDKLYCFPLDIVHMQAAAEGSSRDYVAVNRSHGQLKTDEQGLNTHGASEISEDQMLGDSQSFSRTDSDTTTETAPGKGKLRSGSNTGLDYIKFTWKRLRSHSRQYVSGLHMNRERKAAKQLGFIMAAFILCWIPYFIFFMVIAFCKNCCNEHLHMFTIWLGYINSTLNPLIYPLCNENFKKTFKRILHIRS
ASSAY NAME: NanoBRET saturation binding assay on Nluc-H1R expressing HEK293T cells
Set-up: expressed in transfected cells
MEASUREMENT CONTEXT: saturation binding curves, whole HEK293T cells, non-specific with 10 μM mepyramine; mean ± SEM
Square brackets hold non-standard residues; d marks the D form. Peptide text beside a SMILES is read from it. * marks the point of attachment. X1 = O=C(COc1ccc(/C=C/C2=[N+]3C(=Cc4ccc(-c5cccs5)n4[B-]3(F)F)C=C2)cc1)*; Propanoyl(3-Pip(4-O-2-BnPh)) = O=C(CCN1CCC(Oc2ccccc2Cc2ccccc2)CC1)*; βAla = NCCC(=O)O
MEASURED ENDPOINT: pKD
// no unit string in output, number only

Query: Record request: pKD value, item CC(C)[C@H](NC(=O)CCN1CCC(Oc2ccccc2Cc2ccccc2)CC1)C(=O)N[C@@H](C)C(=O)N[C@@H](Cc1ccc(O)cc1)C(=O)NCCC(=O)N[C@@H](CCCCNC(=O)COc1ccc(/C=C/C2=[N+]3C(=Cc4ccc(-c5cccs5)n4[B-]3(F)F)C=C2)cc1)C(N)=O [Compound 31f] ({Propanoyl(3-Pip(4-O-2-BnPh))}-VAY[βAla]K(X1)-NH2)
Reply: 7.96

Moving on to another compound below.
Query: So what does the record say about pKD for CC(C)[C@H](NC(=O)CCN1CCC(Oc2ccccc2Cc2ccccc2)CC1)C(=O)N[C@@H](CO)C(=O)N[C@@H](CC(N)=O)C(=O)NCCC(=O)N[C@@H](CCCn1cc(COc2ccc(/C=C/C3=[N+]4C(=Cc5ccc(-c6cccs6)n5[B-]4(F)F)C=C3)cc2)nn1)C(N)=O [Compound 28a] ?
Reply: 7.70
